Sourced from ChEMBL document CHEMBL3112563

Property: IC50; scope: individual compounds
# TARGET OF ASSAY: Enoyl-acyl carrier reductase (Toxoplasma gondii, UniProt Q6UCJ9)
# Sequence (Q6UCJ9 whole entry): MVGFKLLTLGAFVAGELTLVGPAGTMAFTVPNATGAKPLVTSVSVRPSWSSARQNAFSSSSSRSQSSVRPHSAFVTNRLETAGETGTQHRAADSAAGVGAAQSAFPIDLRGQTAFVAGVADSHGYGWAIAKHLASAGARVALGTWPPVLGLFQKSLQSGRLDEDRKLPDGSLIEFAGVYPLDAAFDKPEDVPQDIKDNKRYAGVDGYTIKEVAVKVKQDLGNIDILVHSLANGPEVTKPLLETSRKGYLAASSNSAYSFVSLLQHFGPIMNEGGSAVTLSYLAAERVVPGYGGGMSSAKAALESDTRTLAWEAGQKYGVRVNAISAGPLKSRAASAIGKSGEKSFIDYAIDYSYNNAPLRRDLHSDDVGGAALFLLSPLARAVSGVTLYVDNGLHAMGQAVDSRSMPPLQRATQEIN
# ASSAY OVERVIEW: Inhibition of Toxoplasma gondii enoyl-ACP reductase-NADH complex

Recorded IC50, per entry:
> print(dat)
                      query.smiles                           target.of.assay  property.label  measured.result
1  Cc1ccc(Cn2cnc3cc(C)c(C)cc32)cc1  Enoyl-acyl carrier reductase (Toxoplasma gondii, UniProt Q6UCJ9)            IC50           > 1 µM
2   Cc1cc2ncn(Cc3ccc(Cl)cc3)c2cc1C  Enoyl-acyl carrier reductase (Toxoplasma gondii, UniProt Q6UCJ9)            IC50           > 1 µM

Fill blank: measured IC50 of the compound "Cc1cc2ncn(Cc3ccc(Cl)c(Cl)c3)c2cc1C" is ____. > 1 µM
